System: RPMI-8226 leukemia
assay_method_text: NCI-60 one-dose screen, 48 h
test_parameters: 10 µM unless noted
Compounds without any hit were thinned out: in the full panel of roughly 83,000, 20% have a hit. The source made the active and inactive calls. The calls were made as follows: active = growth percent below 10; inactive = the rest.
Thanks in advance; please answer with one of these: active, inactive

Worked cases, answers included:
COc1ccc2cc(-c3nc4ccccc4[nH]3)c(=O)oc2c1 = inactive
c1ccc(CN=C(NCc2ccccc2)NCc2ccccc2)cc1 = inactive
CCCCNCCCN(CCCC)CCCNCCCC = inactive

Record lookup: outcome of this test for O=C(COc1cccc(/C=C2\Cc3ccccc3C2=O)c1)c1ccc(Cl)cc1 ? inactive

Hi team, can someone confirm the assay call for NS(=O)(=O)c1cc(C2(O)NC(=O)c3ccccc32)ccc1Cl (centres undefined) ? inactive

Assay outcome for O=C1/C(=C/c2ccccc2Cl)CCc2ccccc21 : what was it? inactive

Test call, this compound: CC1C(=O)NC2=Nc3ccccc3C(=O)NN21 (centres undefined) inactive

Recorded test call requested for COc1cc(/C=C/c2cc(/C=C/c3ccc(O)c(OC)c3)n(C(=O)c3ccc(Cl)cc3)n2)ccc1O active

How did this test come out for COc1ccc(-c2ccc(O)c(C(=O)/C=C/c3cc(OC)c(OC)c(OC)c3)c2)cc1 ? inactive

What outcome does the record of this test show for O=C1c2cc3c(cc2-c2c1c1ccc(Cl)cc1c(=O)n2CCCNCCO)OCO3 ? active

GET /call?item= O=Cc1ncc(-c2ccc(C(F)(F)F)cc2)c(NC2CCCCCC2)n1 returns the recorded outcome of this test. active

Which outcome was assigned to CC(=O)c1ccccc1NC(=O)C(C)(c1ccccc1)c1ccccc1 in this test? inactive

Returns: the outcome recorded for Clc1ccc2nc(CI)c(CI)nc2c1 in this assay. active

Could you check what this test reported for COc1ccccc1-n1c(-c2ccc(O)cc2C)cn2c3c(=O)[nH]c(=O)n(C)c3nc12 ? inactive

Returns: the outcome recorded for CNCCCn1c2c(c3ccc(F)cc3c1=O)C(=O)c1cc(OC)cnc1-2 in this assay. active

Look up the recorded call for O=C(Nc1cccc(-n2cc(-c3ccncc3)c(-c3cc(O)cc(Cl)c3)n2)c1)Nc1ccc(Cl)c(Cl)c1 in this test. active

Lab log entry: [N-]=[N+]=NCc1ncc(-c2ccc(C(F)(F)F)cc2)c(NC2CCCCCC2)n1 — outcome as called in the assay? inactive

Outcome? OCCN1CCN(CCCN2c3ccccc3Sc3ccc(C(F)(F)F)cc32)CC1 inactive

# outcome recorded in this test, key = Cc1sc2nc(N3CCCCC3)[nH]c(=O)c2c1C inactive

Which outcome was assigned to N#Cc1c(-c2ccc(F)cc2)n2c(nc1=O)SC(=O)C2=O in this test? inactive

====

Test system: NCI-H322M lung
assay_method_text: NCI-60 one-dose screen, 48 h
test_parameters: 10 µM unless noted
The panel holds about 83,000 compounds, 20% with a hit somewhere; the sample as a whole holds those more often. Activity calls are given as the source filed them. How the source made its calls: active means growth percent below 10; inactive means the rest.
Your reply should match one of these outcome classes. true (1) for active, false (0) for inactive

COc1cccc2c1C(=O)c1c(O)c3c(c(O)c1C2=O)C[C@@](O)(C(C)=O)C[C@@H]3O[C@H]1C[C@H](N)[C@H](O)[C@H](C)O1 = true (1)
FC(F)(F)c1ccc(-c2cnc(-c3nn[nH]n3)nc2NC2CCCCCC2)cc1 = false (0)
COc1cnc2c(c1)C(=O)c1c-2n(CCCN2CCC(O)CC2)c(=O)c2cc(F)ccc12 = true (1)
COc1ccc(NC(=O)c2ccc(-c3ccccc3)cc2)c(C(N)=O)c1 = false (0)
CC(C)CNc1nc(N=[N+]=[N-])nc(NCC(C)C)n1 = false (0)
CC(C)CC1NC(=O)C(CCCN)NC(=O)C(C(C)C)NC(=O)C2CCCN2C(=O)C(Cc2ccccc2)NC(=O)C(CC(C)C)NC(=O)C(CCCN)NC(=O)C(C(C)C)NC(=O)C2CCCN2C(=O)C(Cc2ccccc2)NC1=O (configuration not stated) = true (1)

Query compound follows.
What was the test verdict on CC(C)=CCNc1ncnc2c1ncn2C1OC(COP(=O)(O)O)C(O)C1O (configuration not stated) ? false (0)
